# system: hMC4-R
# Construct: expressed in transfected cells; host or cells: HEK-293
# protocol_details: Competitive inhibition assay using [I125]-NDP-α-MSH, hMC4-R membranes
# Format: binding, human
# protocol_conditions: MC4-R membranes; Table 1; read-out: Ki (nM) I125-NPD-α-MSH
Please respond with true (1) when measured Ki is strictly beneath 30 nM, and with false (0) in all other cases.

smiles	discrete_label
Cc1ccc(CCN2C[C@H](CCCNC(=N)N)N(C(=O)[C@H](N)Cc3ccc4ccccc4c3)C[C@H]2C)cc1	true (1)
Cc1cc(Cl)ccc1C[C@@H](N)C(=O)N1C[C@@H](C)N(C(=O)Cc2ccc3ccccc3c2)C[C@@H]1CCCNC(=N)N	true (1)
Cc1[nH]c2ccccc2c1CCN1C[C@H](CCCNC(=N)N)N(C(=O)[C@H](N)Cc2ccc3ccccc3c2)C[C@H]1C	true (1)
N=C(N)NCCC[C@H]1CN(CCc2ccc3ccccc3c2)CCN1C(=O)[C@H](N)Cc1ccc(Cl)cc1Cl	true (1)
C[C@@H]1CN(C(=O)[C@H](N)Cc2ccc3ccccc3c2)[C@@H](CCCNC(=N)N)CN1C(=O)CCCc1c[nH]c2ccccc12	false (0)

*Q* Does "C[C@@H]1CN(C(=O)[C@H](N)Cc2ccc3ccccc3c2)[C@@H](CCCNC(=N)N)CN1C(=O)Cc1c[nH]c2ccccc12" have Ki strictly under 30 nM?
*A* false (0)

*Q* Consider next the compound "CC(=O)N[C@H](Cc1ccc(C)cc1C)C(=O)N1C[C@@H](C)N(CCc2ccc3ccccc3c2)C[C@@H]1CCCNC(=N)N" in the same way.
*A* true (1)

*Q* Consider next the compound "CC(=O)N[C@H](Cc1ccc2ccccc2c1)C(=O)N1C[C@@H](CC(C)C)N(CCc2ccc3ccccc3c2)C[C@@H]1CCCNC(=N)N" in the same way.
*A* true (1)

*Q* Consider next the compound "CC(C)C[C@H]1CN(C(=O)[C@H](N)Cc2ccc(Cl)cc2Cl)[C@@H](CCCNC(=N)N)CN1CCc1ccc2ccccc2c1" in the same way.
*A* false (0)

*Q* Consider next the compound "Cc1cc(Cl)ccc1C[C@@H](N)C(=O)N1C[C@@H](C)N(CCc2ccc3ccccc3c2)C[C@@H]1CCCNC(=N)N" in the same way.
*A* true (1)

*Q* Consider next the compound "C[C@@H]1CN(C(=O)[C@H](N)Cc2ccc3ccccc3c2)[C@@H](CCCNC(=N)N)CN1CCc1c[nH]c2ccccc12" in the same way.
*A* false (0)

*Q* Consider next the compound "N=C(N)NCCC[C@H]1C(=O)N(CCc2c[nH]c3ccccc23)CCN1C(=O)[C@H](N)Cc1ccc(Cl)cc1Cl" in the same way.
*A* true (1)

*Q* Consider next the compound "Cc1cc(Cl)ccc1C[C@@H](N)C(=O)N1C[C@@H](C)N(CCc2c[nH]c3ccccc23)C[C@@H]1CCCNC(=N)N" in the same way.
*A* true (1)

----------
# system: MC1-R
# Construct: other: 1 μM compound
# protocol_details: Competitive inhibition assay using [I125]-NDP-α-MSH, MC1-R membranes
# Type: binding, mouse
# Experimental: Competitive inhibition assay using [1125]-NDP-α-MSH. […] The assay mixture was incubated for 90 minutes at room temperature, then filtered and the membranes washed three times with ice cold buffer. The filter was dried and counted in a gamma counter for remaining radioactivity bound to the membranes. 100% specific binding was defined as the difference in radioactivity (cpm) bound to cell membranes in the absence and presence of 1 μM α-MSH. […]
parameter: Ki (nM)
Numbers only, in nM.

compound	system	Ki / nM
NCCCC[C@H]1C(=O)N(CCc2ccc3ccccc3c2)CCN1C(=O)[C@@H](Cc1ccc(Cl)cc1Cl)NC(=O)[C@@H]1CC[C@H](c2ccccc2)N1	MC1-R	1370

# map each compound to its Ki
1. CC(C)C[C@H]1CN(C(=O)[C@H](N)Cc2ccc(Cl)cc2Cl)[C@@H](CCCNC(=N)N)CN1CCc1ccc2ccccc2c1
2. C[C@@H]1CN(C(=O)[C@H](N)Cc2ccc(Cl)cc2Cl)[C@@H](CCCNC(=N)N)CN1CCc1ccc2ccccc2c1
3. C[C@@H]1CN(C(=O)[C@H](N)Cc2ccc3ccccc3c2)[C@@H](CCCNC(=N)N)CN1C(=O)CCCc1c[nH]c2ccccc12
4. Cc1cc(Cl)ccc1C[C@@H](N)C(=O)N1C[C@@H](C)N(C(=O)Cc2ccc3ccccc3c2)C[C@@H]1CCCNC(=N)N

*A*
5900
1130
1200
462

# map each compound to its Ki
1. N=C(N)NCCC[C@H]1C(=O)N2C(CC[C@@H]2COc2ccc3ccccc3c2)N1C(=O)[C@@H](Cc1ccc(Cl)cc1Cl)NC(=O)[C@@H]1CC[C@H](c2ccccc2)N1 (some centres unmarked)
2. C[C@@H]1CN(C(=O)[C@H](N)Cc2ccc3ccccc3c2)[C@@H](CCCNC(=N)N)CN1CCc1c[nH]c2ccccc12
3. CC(=O)N[C@H](Cc1ccc2ccccc2c1)C(=O)N1C[C@@H](CC(C)C)N(CCc2ccc3ccccc3c2)C[C@@H]1CCCNC(=N)N

*A*
1: 1040; 2: 162; 3: 4620
